Listing of recorded pKi by entry.
molecular target: E3 ubiquitin-protein ligase CBL-B (Homo sapiens)
Sequence (Q13191 whole entry): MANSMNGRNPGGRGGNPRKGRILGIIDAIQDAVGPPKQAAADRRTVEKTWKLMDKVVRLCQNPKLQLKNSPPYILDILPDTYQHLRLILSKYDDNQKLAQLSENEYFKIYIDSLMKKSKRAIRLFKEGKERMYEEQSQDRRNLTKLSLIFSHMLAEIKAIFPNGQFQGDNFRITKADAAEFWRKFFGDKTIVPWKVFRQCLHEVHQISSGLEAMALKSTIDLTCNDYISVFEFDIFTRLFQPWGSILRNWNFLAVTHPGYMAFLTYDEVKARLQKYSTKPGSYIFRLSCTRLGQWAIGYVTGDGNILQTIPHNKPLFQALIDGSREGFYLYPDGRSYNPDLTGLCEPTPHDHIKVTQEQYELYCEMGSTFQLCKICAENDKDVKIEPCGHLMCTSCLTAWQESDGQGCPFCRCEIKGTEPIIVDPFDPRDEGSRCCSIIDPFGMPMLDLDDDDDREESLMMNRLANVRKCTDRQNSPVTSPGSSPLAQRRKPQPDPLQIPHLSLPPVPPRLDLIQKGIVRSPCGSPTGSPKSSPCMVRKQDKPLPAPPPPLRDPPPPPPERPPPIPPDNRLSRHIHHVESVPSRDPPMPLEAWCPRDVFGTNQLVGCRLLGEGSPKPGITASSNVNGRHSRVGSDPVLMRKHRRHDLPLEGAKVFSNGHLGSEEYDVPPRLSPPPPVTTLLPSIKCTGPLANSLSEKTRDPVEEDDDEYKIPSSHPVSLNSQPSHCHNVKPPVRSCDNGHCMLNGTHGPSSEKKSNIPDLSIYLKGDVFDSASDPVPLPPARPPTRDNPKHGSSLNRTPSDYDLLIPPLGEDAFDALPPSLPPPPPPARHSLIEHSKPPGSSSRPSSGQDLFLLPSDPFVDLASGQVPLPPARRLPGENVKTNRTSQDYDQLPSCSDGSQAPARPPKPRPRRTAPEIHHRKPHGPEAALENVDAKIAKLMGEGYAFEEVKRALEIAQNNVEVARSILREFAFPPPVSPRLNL
Notebook: values listed as pKi are -log10 of the concentration (mol/L).

Recorded results for 8 compounds are shown here.
{"compound": "Cn1cnnc1[C@]1(c2cccc(-n3cc(C(F)(F)F)c4cc(CN5CC6CC6C5)[nH]c4c3=O)c2)C[C@H](C)C1 (stereo partly specified)", "pKi": 9.07}
{"compound": "CO[C@H]1C[C@@](c2cccc(-n3cc(C(F)(F)F)c4cc(CN5CCC[C@H](C)C5)[nH]c4c3=O)c2)(c2nncn2C)C1", "pKi": 8.86}
{"compound": "C[C@H]1CCCN(Cc2cc3c(C(F)(F)F)cn(-c4cccc(C5(c6nncn6C)CC(F)(F)C5)c4)c(=O)c3[nH]2)C1", "pKi": 8.93}
{"compound": "C[C@H]1CCCN(Cc2cc3c(S(C)(=O)=O)cn(-c4cccc(C5(Cc6nncn6C)COC5)c4)c(=O)c3[nH]2)C1", "pKi": 7.85}
{"compound": "C[C@H]1CCCN(Cc2cc3c(C(F)(F)F)cn(-c4cccc(C5(Cc6nncn6C)COC5)c4)c(=O)c3[nH]2)C1", "pKi": 8.70}
{"compound": "C[C@H]1CCCN(Cc2cc3c(C4CC4)cn(-c4cccc([C@H](c5nncn5C)C5CCC5)c4)c(=O)c3[nH]2)C1", "pKi": 8.85}
{"compound": "C[C@H]1CCCN(Cc2cc3c(C4CC4)cn(-c4cccc([C@@H](c5nncn5C)C5CCC5)c4)c(=O)c3[nH]2)C1", "pKi": 7.42}
{"compound": "C[C@H]1CCCN(Cc2cc3c(C(F)(F)F)cn(-c4cccc(-c5ccccc5-c5nncn5C)c4)c(=O)c3[nH]2)C1", "pKi": 8.15}

Entry "C[C@H]1CCCN(Cc2cc3c(C(F)(F)F)cn(-c4cccc([C@]5(c6nncn6C)C[C@@H](OC(F)(F)F)C5)c4)c(=O)c3[nH]2)C1" has what pKi?
8.87

Can you handle "C[C@H]1CCCN(Cc2cc3ccn(-c4cccc(C5(Cc6nncn6C)COC5)c4)c(=O)c3[nH]2)C1" next?
7.74

Can you handle "CO[C@H]1C[C@@](c2cccc(-n3cc(C(F)(F)F)c4cc(CNC5(C)CCC5)[nH]c4c3=O)c2)(c2nncn2C)C1" next?
8.85
